# Test system: MOLT-4 leukemia
# EXPERIMENT: NCI tumour cell line growth inhibition, 48 h
Recorded TGI for the following compounds

| COMPOUND | TGI |
| --- | --- |
| CC(=O)N1N=C2/C(=C/c3ccc(Cl)cc3)CC(C)CC2C1c1ccc(Cl)cc1 (stereo not given) | 39.3 µM |
| Clc1ccc(OCc2nnc3n2N=C(c2ccc(Cl)cc2Cl)CS3)cc1 | > 100 µM |
| O=C1C=CC(=O)c2c1ccc1c3ccccc3n(-c3ccccc3[N+](=O)[O-])c21 | > 100 µM |
| OCc1c[te]c(-c2ccccc2)c1 | > 100 µM |
| c1ccc2c(c1)CCc1[nH]c3c(c1-2)-c1ccccc1CC3 | > 100 µM |
| CSc1ccc(/C=C2\N=C(c3ccccc3)N(c3nc4cc(C)c(C)cc4s3)C2=O)cc1 | > 100 µM |
| CC(=O)C1=C(C)N(c2ccc(C)cc2)C2(O)C3=C(C(=O)c4ccccc4C3=O)C(O)=CC12Cl (stereo not given) | > 100 µM |
| COc1ccc(-n2ccnc2-c2cc(OC)c(OC)c(OC)c2)cc1 | > 100 µM |
| Cc1cc(N(CCCl)CCCl)ccc1C=Nc1ccc2ccccc2c1 | > 100 µM |
| COC(=O)C1=C(C(=O)OC)C2(C)Nc3ccccc3C2=C(c2ccccc2)C1 (stereo not given) | 29.6 µM |

----------
# Tested on: NCI-H460 lung
# EXPERIMENT: NCI tumour cell line growth inhibition, 48 h
Where a SMILES comes first, the peptide text is derived from it. The star is where a group is joined. Fmoc = O=C(OCC1c2ccccc2-c2ccccc21)*; Boc = CC(C)(C)OC(=O)*
Quick reference for TGI among some compounds

| COMPOUND | TGI |
| --- | --- |
| O=C(O)c1ccc(C(=O)O)c(C(=O)Nc2ccc3c(c2)C(=O)c2ccccc2-3)c1 | > 100 µM |
| O=C1CC(=O)NC(=NNS(=O)(=O)c2ccccc2)N1 | > 100 µM |
| Ic1cc2c(cc1C1SCCCS1)OCO2 | > 100 µM |
| COc1cc([C@@H]2C[C@H]2c2cc(SC)n[nH]2)cc(OC)c1OC | 41.7 µM |
| O=C(C/C(=N/O)c1cc(-c2ccccc2)no1)c1ccccc1 | > 100 µM |
| CN1CCN(C)C12C=CC=CC21CC1 | > 100 µM |
| CCOC(=O)C(C(=S)SC)c1nn2c(=O)cc(C)nc2s1 (centres undefined) | 35.6 µM |
| CC(C)(C)CC(N)=O | > 100 µM |
| CN1CCN(c2ccc3nc(-c4ccc5nc(-c6ccc(O)cc6)[nH]c5c4)[nH]c3c2)CC1 | 714 µM |
| COc1cc2c(cc1OC)C1Cc3cc(OC)c(OC)cc3C(C2)N1C | > 100 µM |
| CC(=O)c1cc(C(=O)c2ccc3c(c2)Sc2ccccc2N3)c2cc(C)ccn12 | > 100 µM |
| CC(C)(CCCCC(C)(C)[N+](C)(C)C)[N+](C)(C)C | > 100 µM |
| CC(C)(C)OC(=O)NCCCCC(NC(=O)C(Cc1c[nH]c2ccccc12)NC(=O)OCC1c2ccccc2-c2ccccc21)C(=O)N1CCCC1C(=O)NCC(N)=O (centres undefined) (Fmoc-WK(Boc)PG-NH2; configuration not given here) | > 100 µM |
| CCNC(=O)O/N=C1\CCC2[C@@H]3CC=C4C[C@@H](OC5CCCCO5)CC[C@]4(C)C3CC[C@]12C (some centres undefined) | 6.21 µM |
| Cc1ccc(Cl)c(Nc2ccccc2C(=O)O)c1Cl | 69.4 µM |
| Nc1nc2c(ncn2Cc2ccccc2CO)c(=O)[nH]1 | > 100 µM |
| COc1cc(-c2cc(-c3cc(OC)c(OC)c(OC)c3)nc3nc(N)[nH]c(=O)c23)ccc1Oc1ccnc2cc(Cl)ccc12 | 37.7 µM |
| NCC1OC(OC2C(CO)OC(OC3C(O)C(N)CC(N)C3OC3OC(CO)C(O)CC3N)C2O)C(N)C(O)C1OC1OC(CO)C(O)C(O)C1O (centres undefined) | > 50 µg/mL |
| CC(=O)OC1CC2C3CCC4C[C@@H](NC(=O)C=C(C)C)CC[C@]4(C)C3CC[C@]2(C)[C@H]1C(C)N(C)C (some centres undefined) | 2.65 µM |
| CCN(CC)Cc1c(/C=C\c2cc(OC)c(OC)c(OC)c2)ccc(OC)c1O | > 100 µM |
| COc1ccc2cc(-c3nc(N)nc(N4N=C(C)CC4(C)C)n3)c(=N)oc2c1 | 35.6 µM |
| CN1C/C=C/CCOc2cccc(c2)-c2ccnc(n2)Nc2cccc(c2)C1 | 0.352 µM |
| COC(=O)[C@H](Cc1ccc(OC(C)(C)C)cc1)N[C@H](C)C(=O)N[C@@H](Cc1ccccc1)C(=O)OCc1ccccc1 | > 100 µM |
| O=C1C=CC(=O)c2c1ccc1c3ccccc3n(Cc3cccc([N+](=O)[O-])c3)c21 | > 100 µM |
| CC(OC(=O)C(CC(=O)OC(C)(C)C)NC(=O)OC(C)(C)C)C(=O)OCc1ccccc1 (centres undefined) | > 100 µM |
| CCCCCCCCC(=O)OCC(CS[As](C)C)OC(=O)CCCCCCCC (centres undefined) | 58.3 µM |
| CC(=O)OC12c3ccccc3-c3ccccc3C1C1C(=O)OC(=O)C12 (centres undefined) | > 10 µM |
| CCOC1Oc2ccccc2-c2nc(SC)ncc21 (centres undefined) | > 100 µM |
| Cc1cc(C(C)(C)C)cc(CNC2CCCCC2)c1O | 28.4 µM |

----------
# Test system: MALME-3M melanoma
# EXPERIMENT: NCI tumour cell line growth inhibition, 48 h
A collection of compounds and their measured TGI

| COMPOUND | TGI |
| --- | --- |
| O=C(COC(=O)c1cccc2c(=O)c3ccccc3[nH]c12)Nc1ccc(C(=O)O)cc1 | > 100 µM |
| COC(=O)C1=C(C(=O)OC)C2(C)Nc3ccccc3C2=C(c2ccccc2)C1 (configuration not stated) | 37.1 µM |
| O=C1CC(=O)NC(=NNS(=O)(=O)c2ccccc2)N1 | > 100 µM |
| CC(=O)Nc1nnc(S(C)(=O)=O)s1 | > 100 µM |
| COc1ccc(/C=C2\C=C(c3ccccc3)N(CCc3ccccc3)C2=O)cc1OC | 61.9 µM |
| CCOC(=O)c1c2c(c(O)c3ccccc3c(O)n(Cc3ccccc3)c1C)C(=O)C=CC2=O | > 100 µM |
| O=C(Nc1n[nH]c2nnc(-c3cccnc3)cc12)C1CC1 | > 25 µM |
| O=c1[nH]c(=O)n(C2OC(CO)C(O)C2O)cc1Oc1ccccc1 (configuration not stated) | > 100 µM |
| COC(=O)[C@H](CC(C)C)Nc1c(O)c2c(c(O)c1Cl)C(=O)C=CC2=O | > 10 µM |
| O=C(C/C(=N/O)c1cc(-c2ccccc2)no1)c1ccccc1 | > 100 µM |
| CC1CCC2(CC1)NC1=C(CC(C)CC1)C1=C2CC(C)CC1 (configuration not stated) | 74.5 µM |
| c1ccc2c(c1)CCc1[nH]c3c(c1-2)-c1ccccc1CC3 | > 100 µM |
| CC(C)(C)c1c2c(c(C(C)(C)C)c3c1OCN(Cc1ccccc1)C3)OCN(Cc1ccccc1)C2 | 43.1 µM |
| CC1(c2ccccc2)CC(c2cccc([N+](=O)[O-])c2)=NO1 (configuration not stated) | > 100 µM |
| Cc1cc(C(C)(C)C)cc(CNC2CCCCC2)c1O | 27.8 µM |
| CCN(CC)Cc1c(/C=C\c2cc(OC)c(OC)c(OC)c2)ccc(OC)c1O | > 100 µM |
| COC(=O)C1=C(C)C=C(N2CCOCC2)C(C(=O)OC)C1c1ccccc1 (configuration not stated) | > 10 µM |
| CC(=O)OC1CC2C3CCC4C[C@@H](NC(=O)C=C(C)C)CC[C@]4(C)C3CC[C@]2(C)[C@H]1C(C)N(C)C (some centres not stated) | 4.53 µM |
| OCCOc1ccccc2cccc1-2 | > 100 µM |
| CS(=O)(=O)CC(=O)c1ccccc1 | > 100 µM |
| CN(Cc1cc(Cl)cc(Cl)c1O)Cc1c(O)ccc2ccccc12 | 28.9 µM |
| O=c1oc2ccc(Br)cc2c(=O)n1-c1ccc(I)cc1F | 1.27 µM |

----------
# Tested on: SW-620 colon
# EXPERIMENT: NCI tumour cell line growth inhibition, 48 h; in the data active = GI50 below about 0.43 µM; inactive = the rest
Possible outcomes: active, inactive

| COMPOUND | CAT |
| --- | --- |
| NCC1OC(OC2C(CO)OC(OC3C(O)C(N)CC(N)C3OC3OC(CO)C(O)CC3N)C2O)C(N)C(O)C1OC1OC(CO)C(O)C(O)C1O (centres undefined) | inactive |
| COc1cc(-c2cc(-c3cc(OC)c(OC)c(OC)c3)nc3nc(N)[nH]c(=O)c23)ccc1Oc1ccnc2cc(Cl)ccc12 | inactive |
| CN1C/C=C/CCOc2cccc(c2)-c2ccnc(n2)Nc2cccc(c2)C1 | active |
| O=C1c2ccccc2-c2c1c1ccccc1c(=O)n2CCCNCCCCNCCCN1C(=O)c2ccccc2C2C(=O)c3ccccc3C21 (centres undefined) | active |
| O=C(Nc1ccc(/C=C/c2ccc(NC(=O)c3cc(S(=O)(=O)O)c4cccnc4c3O)cc2S(=O)(=O)O)c(S(=O)(=O)O)c1)c1cc(S(=O)(=O)O)c2cccnc2c1O | inactive |
| O=C1c2cccc(NCCN=Cc3ccccc3O)c2C(=O)c2c(NCCN=Cc3ccccc3O)cccc21 | active |
| COc1ccc(/C=C2\C=C(c3ccccc3)N(CCc3ccccc3)C2=O)cc1OC | inactive |
| NC(N)=N/N=C/c1ccc(-c2ccc(-c3cc(Cl)cc(Cl)c3)s2)cc1 | inactive |
| O=C1OCC2=C1C(c1ccc(Cl)c(Cl)c1)c1cc3c(cc1N2CCO)CCC3 (centres undefined) | active |
